Test: CHI Log D procedure
Format: physicochemical
Conditions: pH 7.4
ASSAY ENDPOINT: CHI Log D
Just the number, please, no unit attached.

COMPOUND: CC(=O)N1CCC[C@]12CC=CCCCC1(CCCC=CCCCOC(=O)N3CC[C@@](C(=O)N[C@@H](Cc4ccsc4)C(=O)N[C@@H](Cc4csc5ccccc45)C(=O)N[C@@H](CCC(N)=O)C(N)=O)(C3)NC(=O)[C@H](CO)NC(=O)[C@H](Cc3ccccc3)NC(=O)[C@H](C)NC(=O)[C@H](C)NC(=O)[C@H](Cc3cccc(C(=O)O)c3)NC(=O)[C@H](CC(=O)O)NC1=O)NC(=O)[C@H](CC(C)(C)C)NC(=O)[C@H](CC(=O)O)NC2=O (stereo partly drawn) [I-979]
CHI Log D: 1.809
--
COMPOUND: CC(=O)N1CCC[C@]12CC=CCCCC1(CCCC=CCCCOC(=O)N3CC[C@@](C(=O)N[C@@H](Cc4ccsc4)C(=O)N[C@@H](Cc4csc5ccccc45)C(=O)N[C@@H](CO)C(N)=O)(C3)NC(=O)[C@H]([C@@H](C)O)NC(=O)[C@H](Cc3ccccc3)NC(=O)[C@H](C)NC(=O)[C@H](C)NC(=O)[C@H](CN(CC(=O)O)CC(F)(F)F)NC(=O)[C@H](CC(=O)O)NC1=O)NC(=O)[C@H](CC(C)(C)C)NC(=O)[C@H](CC(=O)O)NC2=O (stereo partly drawn) [I-956]
CHI Log D: 1.875

Next item in the queue.
Prompt: Which value of CHI Log D has been reported for CC[C@H](C)[C@@H]1NC(=O)[C@H](CC(=O)O)NC(=O)[C@]2(CC=CCCCC3(CCCC=CCCCCCC[C@@](C)(C(=O)N[C@@H](Cc4ccccc4)C(=O)N[C@@H](Cc4csc5ccccc45)C(=O)N[C@@H](Cc4c[nH]c5ccccc45)C(N)=O)NC(=O)[C@H](CCC(N)=O)NC(=O)[C@H](Cc4ccccc4)NC(=O)[C@H](C)NC(=O)[C@H](C)NC(=O)[C@H](CCC(=O)O)NC(=O)[C@H](CC(=O)O)NC3=O)NC1=O)CCCN2C(C)=O (stereo partly drawn) [I-644] in the records?
Response: 2.837

* * *

Listing of entries alongside the reported pIC50.
Target: beta-catenin/TCF4 engagement (Homo sapiens)
Construct: expressed in transfected cells; host or cells: HEK293
Sequence (P35222 whole entry): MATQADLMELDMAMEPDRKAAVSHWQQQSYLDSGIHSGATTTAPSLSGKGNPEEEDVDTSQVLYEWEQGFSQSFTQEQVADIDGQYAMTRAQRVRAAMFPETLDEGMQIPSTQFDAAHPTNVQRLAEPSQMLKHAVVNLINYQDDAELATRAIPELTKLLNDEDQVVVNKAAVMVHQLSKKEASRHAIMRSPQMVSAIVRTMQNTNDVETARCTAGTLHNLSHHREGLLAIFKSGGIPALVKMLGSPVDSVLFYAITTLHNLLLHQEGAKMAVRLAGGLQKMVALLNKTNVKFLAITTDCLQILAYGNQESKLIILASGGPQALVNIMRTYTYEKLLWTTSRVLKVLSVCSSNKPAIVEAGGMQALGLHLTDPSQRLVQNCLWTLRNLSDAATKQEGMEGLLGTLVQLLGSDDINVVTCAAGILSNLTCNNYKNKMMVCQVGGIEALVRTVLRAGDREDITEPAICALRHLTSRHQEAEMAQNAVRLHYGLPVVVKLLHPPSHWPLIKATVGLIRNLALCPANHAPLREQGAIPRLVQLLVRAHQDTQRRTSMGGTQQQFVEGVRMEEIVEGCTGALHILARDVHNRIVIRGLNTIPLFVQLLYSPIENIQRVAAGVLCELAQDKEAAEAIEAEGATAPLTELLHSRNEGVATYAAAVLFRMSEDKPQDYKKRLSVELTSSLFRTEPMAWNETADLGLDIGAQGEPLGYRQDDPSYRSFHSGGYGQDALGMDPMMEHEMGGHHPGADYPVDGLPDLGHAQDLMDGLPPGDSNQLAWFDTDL
Assay: Nano-BRET target engagement assay (B-cat-Halo & TCF4-Luc in HEK293 cells)
Assay type: cell-based
Settings: absolute IC50; read-out: NanoBRET Abs IC50
In simple prose, pIC50 is minus the logarithm base ten of a concentration in moles per litre.

Some solved entries appear below for comparison.
COMPOUND: CC(=O)N1CCC[C@]12CC=CCCCC1(CCCC=CCCCOC(=O)N3CC[C@@](C(=O)N[C@@H](Cc4ccccc4C(F)(F)F)C(=O)N[C@@H](Cc4csc5ccccc45)C(=O)N[C@@H](C)C(N)=O)(C3)NC(=O)[C@H](CC(C)C)NC(=O)[C@H](Cc3ccccc3)NC(=O)[C@H](C)NC(=O)[C@H](CCC(N)=O)NC(=O)[C@H](Cc3cc(C(=O)O)cc(C(C)C)c3)NC(=O)[C@H](CC(=O)O)NC1=O)NC(=O)[C@H](CC(C)(C)C)NC(=O)[C@H](CC(=O)O)NC2=O (stereo partly drawn)
RESULT: 5.15
--
COMPOUND: CC(=O)N1CCC[C@]12CC=CCCCC1(CCCC=CCCCOC(=O)N3CC[C@@](C(=O)N[C@@H](Cc4ccccc4C(F)(F)F)C(=O)N[C@@H](Cc4cccc(Cl)c4)C(=O)N[C@@H](CO)C(N)=O)(C3)NC(=O)[C@H](CC(C)C)NC(=O)[C@H](Cc3ccccc3)NC(=O)[C@H](C)NC(=O)[C@H](C)NC(=O)[C@H](Cc3cccc(C(=O)O)c3)NC(=O)[C@H](CC(=O)O)NC1=O)NC(=O)[C@H](CC(C)(C)C)NC(=O)[C@H](CC(=O)O)NC2=O (stereo partly drawn)
RESULT: 4.97
--
COMPOUND: CC[C@H](C)[C@@H]1NC(=O)[C@H](CC(=O)O)NC(=O)[C@]2(CC=CCCCC3(CCCC=CCCCCCC[C@@](C)(C(=O)N[C@@H](Cc4ccccc4)C(=O)N[C@@H](Cc4csc5ccccc45)C(=O)N[C@@H](CCC(N)=O)C(N)=O)NC(=O)[C@H](CCC(N)=O)NC(=O)[C@H](Cc4cccs4)NC(=O)[C@H](C)NC(=O)[C@H](C)NC(=O)[C@H](CCC(=O)O)NC(=O)[C@H](CC(=O)O)NC3=O)NC1=O)CCCN2C(C)=O (stereo partly drawn)
RESULT: 4.95

Next item in the queue.
Prompt: Which value of pIC50 has been reported for CC(=O)N1CCC[C@]12CC=CCCCC1(CCCC=CCCCOC(=O)N3CC[C@@](C(=O)N[C@@H](Cc4ccsc4)C(=O)N[C@@H](Cc4ccc(Cl)c(Cl)c4)C(=O)N[C@@H](CCC(N)=O)C(N)=O)(C3)NC(=O)[C@H](CC(C)C)NC(=O)[C@H](Cc3ccccc3)NC(=O)[C@H](C)NC(=O)[C@H](C)NC(=O)[C@H](Cc3cccc(C(=O)O)c3)NC(=O)[C@H](CC(=O)O)NC1=O)NC(=O)[C@H](CC(C)(C)C)NC(=O)[C@H](CC(=O)O)NC2=O (stereo partly drawn) in the records?
Response: 5.47

Where do these numbers come from? They come from patent US20240116985A1.
